test.summary: isobaric coefficient of expansion
test.settings: 348.15 K; 25000 kPa; Liquid; Microcalorimeter
measured.endpoint: isobaric coefficient of expansion

molecule: CCn1cc[n+](C)c1.F[B-](F)(F)F [1-ethyl-3-methylimidazolium tetrafluoroborate]
readout.value: 0.000554 1/K

molecule: CCCC[n+]1cccc(C)c1.F[B-](F)(F)F [1-butyl-3-methylpyridinium tetrafluoroborate]
readout.value: 0.000548 1/K

molecule: CCn1cc[n+](C)c1.O=S(=O)([N-]S(=O)(=O)C(F)(F)F)C(F)(F)F
readout.value: 0.000602 1/K

molecule: CCCCCCn1cc[n+](C)c1.F[B-](F)(F)F [1-hexyl-3-methylimidazolium tetrafluoroborate]
readout.value: 0.000555 1/K

molecule: CCCCCCCC[n+]1ccn(C)c1.F[B-](F)(F)F [1-methyl-3-octylimidazolium tetrafluoroborate]
readout.value: 0.000555 1/K

molecule: CCCCCC[n+]1ccn(C)c1.O=S(=O)([N-]S(=O)(=O)C(F)(F)F)C(F)(F)F
readout.value: 0.000602 1/K
